Target: UniProt:P30098
Sequence (P30098 whole entry): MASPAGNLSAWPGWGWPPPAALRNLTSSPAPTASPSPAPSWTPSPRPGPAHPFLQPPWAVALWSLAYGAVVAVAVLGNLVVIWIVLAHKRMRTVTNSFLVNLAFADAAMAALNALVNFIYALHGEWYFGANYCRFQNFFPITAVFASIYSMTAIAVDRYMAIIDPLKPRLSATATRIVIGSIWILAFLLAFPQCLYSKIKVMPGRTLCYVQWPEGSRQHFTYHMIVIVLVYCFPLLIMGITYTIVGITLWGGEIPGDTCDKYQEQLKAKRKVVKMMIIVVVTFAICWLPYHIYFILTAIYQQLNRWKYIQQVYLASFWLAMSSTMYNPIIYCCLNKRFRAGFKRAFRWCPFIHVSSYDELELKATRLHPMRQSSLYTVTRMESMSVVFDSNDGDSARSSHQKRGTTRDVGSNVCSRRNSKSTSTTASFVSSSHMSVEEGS
Test: Binding affinity for NK3 receptor binding sites in guinea pig cortical membranes by using [125I][MePhe7]-NKB as radioligand
reported metric: IC50 (nM)

INSERT INTO results (test_smiles, study_system, reported_metric, recorded_measurement) VALUES
  ('CC(C)(C)OC(=O)N[C@@](C)(Cc1ccccc1)C(=O)N[C@H](Cc1ccccc1)C(=O)NCCCCCCCCC(N)=O', 'UniProt:P30098', 'IC50', 15);

====

Biological target: Neuromedin-K receptor (Homo sapiens, UniProt P29371)
Sequence (P29371 whole entry): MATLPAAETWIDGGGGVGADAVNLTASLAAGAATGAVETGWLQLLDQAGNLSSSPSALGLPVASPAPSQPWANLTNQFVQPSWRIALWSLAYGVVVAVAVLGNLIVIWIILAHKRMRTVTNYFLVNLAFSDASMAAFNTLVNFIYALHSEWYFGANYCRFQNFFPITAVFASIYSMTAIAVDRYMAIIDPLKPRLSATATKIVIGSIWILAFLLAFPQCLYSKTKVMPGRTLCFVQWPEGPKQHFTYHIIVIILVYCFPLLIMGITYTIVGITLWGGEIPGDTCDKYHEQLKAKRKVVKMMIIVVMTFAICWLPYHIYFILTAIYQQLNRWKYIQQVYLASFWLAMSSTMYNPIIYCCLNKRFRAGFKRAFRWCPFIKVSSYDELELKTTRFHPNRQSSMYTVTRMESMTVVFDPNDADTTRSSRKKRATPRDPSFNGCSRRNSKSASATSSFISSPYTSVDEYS
Assay: Displacement of [125I][MePhe]-NKB from human NK3 receptor expressed in CHO cells
Assay type: cell-based
reported metric: IC50 (nM)

INSERT INTO assay_data (molecule, reported_metric, recorded_measurement) VALUES
  ('COCCCCCCCCNC(=O)C(Cc1ccccc1)NC(=O)[C@](C)(Cc1ccccc1)NC(=O)OC(C)(C)C (stereo partly specified)', 'IC50', 102);

====

Biological target: Substance-K receptor (Mesocricetus auratus, UniProt P51144)
Sequence (P51144 whole entry): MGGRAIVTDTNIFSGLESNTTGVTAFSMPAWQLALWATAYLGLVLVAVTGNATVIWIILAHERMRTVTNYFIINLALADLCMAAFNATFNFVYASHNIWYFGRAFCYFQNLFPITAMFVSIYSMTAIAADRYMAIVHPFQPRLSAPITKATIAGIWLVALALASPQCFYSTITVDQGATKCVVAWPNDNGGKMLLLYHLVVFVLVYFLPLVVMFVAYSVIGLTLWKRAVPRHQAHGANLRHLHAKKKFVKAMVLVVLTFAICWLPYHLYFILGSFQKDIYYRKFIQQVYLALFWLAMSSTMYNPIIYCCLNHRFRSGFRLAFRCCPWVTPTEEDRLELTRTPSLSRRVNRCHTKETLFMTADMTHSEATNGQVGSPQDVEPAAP
pIC50: −log10 of the molar value.
reported metric: pIC50

INSERT INTO results (test_smiles, study_system, recorded_measurement) VALUES
  ('CC(C)(C)OC(=O)N[C@@](C)(Cc1ccccc1)C(=O)N[C@H](Cc1ccccc1)C(=O)NCCCCCCCCC(N)=O', 'Substance-K receptor (Mesocricetus auratus, UniProt P51144)', 5.30);

====

Biological target: Substance-P receptor (Homo sapiens, UniProt P25103)
Sequence (P25103 whole entry): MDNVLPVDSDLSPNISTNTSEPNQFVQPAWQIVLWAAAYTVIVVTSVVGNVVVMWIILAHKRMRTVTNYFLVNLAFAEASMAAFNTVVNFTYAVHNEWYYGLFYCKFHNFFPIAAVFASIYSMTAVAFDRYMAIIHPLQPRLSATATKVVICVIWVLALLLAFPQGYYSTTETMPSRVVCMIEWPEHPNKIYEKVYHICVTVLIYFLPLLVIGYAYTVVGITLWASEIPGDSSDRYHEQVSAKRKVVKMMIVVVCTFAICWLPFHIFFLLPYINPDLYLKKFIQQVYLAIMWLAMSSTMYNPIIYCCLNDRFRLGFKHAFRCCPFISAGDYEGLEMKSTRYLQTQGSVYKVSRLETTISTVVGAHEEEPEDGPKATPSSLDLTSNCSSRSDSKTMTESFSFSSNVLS
Test: Binding affinity for NK1 receptor binding sites in human lymphoma IM9 cells by using [125I]-Bolton-Hunter substance P as radioligand
reported metric: IC50 (µM)

INSERT INTO results (test_smiles, reported_metric, recorded_measurement) VALUES
  ('CC(C)(C)OC(=O)N[C@@](C)(Cc1ccccc1)C(=O)N[C@H](Cc1ccccc1)C(=O)NCCCCCCCCC(N)=O', 'IC50', 10),
  ('CC(C)(C)OC(=O)N[C@@](C)(Cc1ccccc1)C(=O)N[C@H](Cc1ccccc1)C(=O)NCCCCCCCCO', 'IC50', 10);

These measurements were taken from ChEMBL document CHEMBL1127709.
